target: acetylcholine receptor; assay: SPR, AchR immobilized on CM5 chip, peptide 10 µM
Would you kindly list Binding affinity (RU) for each of these binders?
Numbers only, in RU.

// solved cases for Binding affinity (RU) follow
Recorded Binding affinity (RU) for RRRCRK [6mer-2-240] , please?
142

What Binding affinity (RU) value was documented for this binder, KRVLKR [6mer-2-243] ?
148

So what's the measured Binding affinity (RU) for this one? KWISKK [6mer-2-246]
123

Please give the measured Binding affinity (RU) for this binder: KSRTKR [6mer-2-203]
135

Can you share its Binding affinity (RU)? I mean this binder: RLVYKR [6mer-2-237]
123

Which measured Binding affinity (RU) value corresponds to KRRRKK [6mer-2-250] ?
145

Which Binding affinity (RU) is listed for KVYSKR [6mer-2-220] ?
135

Any idea what Binding affinity (RU) was measured for KSQRRR [6mer-2-242] ?
135

# return Binding affinity (RU) for each item in the list
1. RLRRKK [6mer-2-255]
2. KQLTKR [6mer-2-241]
3. KQFTRK [6mer-2-232]
4. KLRSRR [6mer-2-253]
5. RWRSRK [6mer-2-214]

1. 139
2. 135
3. 135
4. 145
5. 139
